- TESTED ON: FXR (Homo sapiens, UniProt Q96RI1)
- Sequence (Q96RI1 262-486 limits assumed): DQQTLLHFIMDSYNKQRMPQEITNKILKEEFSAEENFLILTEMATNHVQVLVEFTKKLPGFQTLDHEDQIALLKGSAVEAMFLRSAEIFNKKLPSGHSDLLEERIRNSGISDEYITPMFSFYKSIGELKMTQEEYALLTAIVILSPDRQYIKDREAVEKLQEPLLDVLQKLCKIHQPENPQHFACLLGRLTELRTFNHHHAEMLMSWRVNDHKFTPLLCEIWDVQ
- METHOD SUMMARY: FXR reporter gene expression test (dual luciferase, FXR Gal4 reporter in HepG2 cells)
- CONDITION DETAILS: HepG2 cells transiently transfected with FXR Gal4 reporter, 18 hours
PARAMETER MEASURED: EC50 (µM)

[[record]]
molecule = "C[C@H](CC1SC(=O)NC1=O)C1CCC2C3C(CC[C@@]21C)[C@@]1(C)CC[C@@H](O)C[C@H]1C[C@H]3O (stereo partly drawn)"
obs_value = 3.37

[[record]]
molecule = "CC[C@H]1[C@@H](O)C2C3CCC([C@H](C)CCc4nnc[nH]4)[C@@]3(C)CCC2[C@@]2(C)CC[C@@H](O)C[C@@H]12 (stereo partly drawn)"
obs_value = 5.2

[[record]]
molecule = "CC[C@H]1[C@@H](O)C2C3CCC([C@H](C)CCC(=O)NOC)[C@@]3(C)CCC2[C@@]2(C)CC[C@@H](O)C[C@@H]12 (stereo partly drawn)"
obs_value = 1.06

[[record]]
molecule = "CC[C@H]1[C@@H](O)C2C3CCC([C@H](C)CCc4noc(=O)[nH]4)[C@@]3(C)CCC2[C@@]2(C)CC[C@@H](O)C[C@@H]12 (stereo partly drawn)"
obs_value = 1.36

[[record]]
molecule = "CC[C@H]1[C@@H](O)C2C3CCC([C@H](C)CCC(=O)NOCCO)[C@@]3(C)CCC2[C@@]2(C)CC[C@@H](O)C[C@@H]12 (stereo partly drawn)"
obs_value = 3.37

[[record]]
molecule = "CC[C@H]1[C@@H](O)C2C3CCC([C@H](C)CCC(=O)NO)[C@@]3(C)CCC2[C@@]2(C)CC[C@@H](O)C[C@@H]12 (stereo partly drawn)"
obs_value = 3.39

